# PROTOCOL: Concentration of Compound 3 in rat tissue 24 hours after i.v. liposome (LC/MS/MS)
# Assay type: in vivo
# ASSAY CONDITIONS: male, SD, rat, liver, iv, 24 hours after i.v. liposome, Liver, animal 2
# Method: A pH-responsive liposome was prepared from mixed lipid (Compound (3)/cholesterol/PEG-Glu2C18=5/5/0.03 (mol)) using the high-pressure extrusion method. In the preparation, the particle size of the liposome was adjusted to 200 to 250 nm. Further, BSA was encapsulated in the internal aqueous phase. […] Further, after blood was collected 24 hours after the administration, the liver, spleen, lung and kidney were isolated, the wet weight thereof was measured, and these materials were preserved at −80° C. […]
MEASUREMENT NAME: concentration at 24 h (ng/g)
State just the number; it will be interpreted in ng/g.

Endpoint output: concentration at 24 h of CCCCCCCCCCCCCCCCOC(=O)CCC(NC(=O)C(CCCCNC(=O)C(N)CCC(=O)O)NC(=O)C(N)CCC(=O)O)C(=O)OCCCCCCCCCCCCCCCC (stereo not shown) . Value?
64400

---

# PROTOCOL: Concentration of Compound 3 in rat plasma after i.v. liposome (LC/MS/MS)
# Format: in vivo, SD rat
# ASSAY CONDITIONS: male, Sprague-Dawley, rat, plasma, iv, 40 mg/kg, SD rat, i.v. BSA-encapsulated pH-responsive liposome ([Lipid]=20 mg/mL, 2 ml/kg); 2 hr; animal 2; read-out: GGLG concentration in plasma
MEASUREMENT NAME: concentration at 2 h (ng/mL)
Please give a number only; it is taken to be in ng/mL.

Please report the recorded concentration at 2 h for CCCCCCCCCCCCCCCCOC(=O)CCC(NC(=O)C(CCCCNC(=O)C(N)CCC(=O)O)NC(=O)C(N)CCC(=O)O)C(=O)OCCCCCCCCCCCCCCCC (stereo not shown) .
39300

---

# PROTOCOL: Concentration of Compound 3 in rat plasma after i.v. liposome (LC/MS/MS)
# Type: in vivo, SD rat
# ASSAY CONDITIONS: male, Sprague-Dawley, rat, plasma, iv, 40 mg/kg, SD rat, i.v. BSA-encapsulated pH-responsive liposome ([Lipid]=20 mg/mL, 2 ml/kg); 5 min; animal 3; read-out: GGLG concentration in plasma
MEASUREMENT NAME: concentration at 5 min (µg/mL)
Give the value, in units of µg/mL, as a plain number.

What does the record list as concentration at 5 min for CCCCCCCCCCCCCCCCOC(=O)CCC(NC(=O)C(CCCCNC(=O)C(N)CCC(=O)O)NC(=O)C(N)CCC(=O)O)C(=O)OCCCCCCCCCCCCCCCC (stereo not shown) [Compound 3] ?
136

---

# PROTOCOL: Concentration of Compound 3 in rat tissue 24 hours after i.v. liposome (LC/MS/MS)
# Format: in vivo
# ASSAY CONDITIONS: male, SD, rat, spleen, iv, 24 hours after i.v. liposome, Spleen, animal 1
MEASUREMENT NAME: concentration at 24 h (ng/g)
Provide the reading as a plain figure in ng/g.

Quick one: concentration at 24 h for CCCCCCCCCCCCCCCCOC(=O)CCC(NC(=O)C(CCCCNC(=O)C(N)CCC(=O)O)NC(=O)C(N)CCC(=O)O)C(=O)OCCCCCCCCCCCCCCCC (stereo not shown) [Compound 3] ?
30400

---

# PROTOCOL: Concentration of Compound 3 in rat plasma after i.v. liposome (LC/MS/MS)
# Format: in vivo, SD rat
# ASSAY CONDITIONS: male, Sprague-Dawley, rat, plasma, iv, 40 mg/kg, SD rat, i.v. BSA-encapsulated pH-responsive liposome ([Lipid]=20 mg/mL, 2 ml/kg); 1 hr; Average value (N=3); read-out: GGLG concentration in plasma
MEASUREMENT NAME: concentration at 1 h

Report concentration at 1 h for CCCCCCCCCCCCCCCCOC(=O)CCC(NC(=O)C(CCCCNC(=O)C(N)CCC(=O)O)NC(=O)C(N)CCC(=O)O)C(=O)OCCCCCCCCCCCCCCCC (stereo not shown) please.
53.6 µg/mL

---

# PROTOCOL: Concentration of Compound 3 in rat plasma after i.v. liposome (LC/MS/MS)
# Assay type: in vivo, SD rat
# ASSAY CONDITIONS: male, Sprague-Dawley, iv, 40 mg/kg; SD rat plasma, i.v. liposome ([Lipid]=20 mg/mL, 2 ml/kg); animal 1
MEASUREMENT NAME: Tmax (min)
Field format: number, assumed min, no unit text.

Recorded Tmax for CCCCCCCCCCCCCCCCOC(=O)CCC(NC(=O)C(CCCCNC(=O)C(N)CCC(=O)O)NC(=O)C(N)CCC(=O)O)C(=O)OCCCCCCCCCCCCCCCC (stereo not shown) , please?
4.98

---

# PROTOCOL: Concentration of Compound 3 in rat tissue 24 hours after i.v. liposome (LC/MS/MS)
# Format: in vivo
# ASSAY CONDITIONS: male, SD, rat, spleen, iv, 24 hours after i.v. liposome, Spleen, animal 2
MEASUREMENT NAME: concentration at 24 h
Numeric answer plus unit only.

Form field: reported concentration at 24 h of CCCCCCCCCCCCCCCCOC(=O)CCC(NC(=O)C(CCCCNC(=O)C(N)CCC(=O)O)NC(=O)C(N)CCC(=O)O)C(=O)OCCCCCCCCCCCCCCCC (stereo not shown)
33400 ng/g

---

# PROTOCOL: Concentration of Compound 3 in rat plasma after i.v. liposome (LC/MS/MS)
# Format: in vivo, SD rat
# ASSAY CONDITIONS: male, Sprague-Dawley, rat, plasma, iv, 40 mg/kg, SD rat plasma, i.v. liposome ([Lipid]=20 mg/mL, 2 ml/kg); animal 2; read-out: t½ (converted)
MEASUREMENT NAME: half-life (h)
Answer with a number only, understood to be in h.

If you can, please state the reported half-life value of CCCCCCCCCCCCCCCCOC(=O)CCC(NC(=O)C(CCCCNC(=O)C(N)CCC(=O)O)NC(=O)C(N)CCC(=O)O)C(=O)OCCCCCCCCCCCCCCCC (stereo not shown) [Compound 3] .
4.31

---

# PROTOCOL: Concentration of Compound 3 in rat plasma after i.v. liposome (LC/MS/MS)
# Assay type: in vivo, SD rat
# ASSAY CONDITIONS: male, Sprague-Dawley, rat, plasma, iv, 40 mg/kg, SD rat, i.v. BSA-encapsulated pH-responsive liposome ([Lipid]=20 mg/mL, 2 ml/kg); 2 hr; animal 1; read-out: GGLG concentration in plasma
MEASUREMENT NAME: concentration at 2 h (ng/mL)
Hi! Could you send only the number? It should be in ng/mL, unit omitted.

Need concentration at 2 h of CCCCCCCCCCCCCCCCOC(=O)CCC(NC(=O)C(CCCCNC(=O)C(N)CCC(=O)O)NC(=O)C(N)CCC(=O)O)C(=O)OCCCCCCCCCCCCCCCC (stereo not shown) , thanks.
25800

---

# PROTOCOL: Concentration of Compound 3 in rat plasma after i.v. liposome (LC/MS/MS)
# Format: in vivo, SD rat
# ASSAY CONDITIONS: male, Sprague-Dawley, rat, plasma, iv, 40 mg/kg, SD rat plasma, i.v. liposome ([Lipid]=20 mg/mL, 2 ml/kg); Average; read-out: t½ (converted)
MEASUREMENT NAME: half-life (min)
Number only, in min; omit the unit.

Which value of half-life has been reported for CCCCCCCCCCCCCCCCOC(=O)CCC(NC(=O)C(CCCCNC(=O)C(N)CCC(=O)O)NC(=O)C(N)CCC(=O)O)C(=O)OCCCCCCCCCCCCCCCC (stereo not shown) in the records?
290

---

# PROTOCOL: Concentration of Compound 3 in rat plasma after i.v. liposome (LC/MS/MS)
# Type: in vivo, SD rat
# ASSAY CONDITIONS: male, Sprague-Dawley, rat, plasma, iv, 40 mg/kg, from concentration in rat plasma, i.v. pH-responsive liposome; read-out: half-life of Compound 3 (converted)
# Protocol: A pH-responsive liposome was prepared from mixed lipid (Compound (3)/cholesterol/PEG-Glu2C18=5/5/0.03 (mol)) using the high-pressure extrusion method. In the preparation, the particle size of the liposome was adjusted to 200 to 250 nm. Further, BSA was encapsulated in the internal aqueous phase. […] Further, after blood was collected 24 hours after the administration, the liver, spleen, lung and kidney were isolated, the wet weight thereof was measured, and these materials were preserved at −80° C. […]
MEASUREMENT NAME: half-life
Give the value; after it, write the unit.

Param item = CCCCCCCCCCCCCCCCOC(=O)CCC(NC(=O)C(CCCCNC(=O)C(N)CCC(=O)O)NC(=O)C(N)CCC(=O)O)C(=O)OCCCCCCCCCCCCCCCC (stereo not shown) ; retrieve measured half-life.
4.8 h

---

# PROTOCOL: Concentration of Compound 3 in rat plasma after i.v. liposome (LC/MS/MS)
# Type: in vivo, SD rat
# ASSAY CONDITIONS: male, Sprague-Dawley, rat, plasma, iv, 40 mg/kg, SD rat plasma, i.v. liposome ([Lipid]=20 mg/mL, 2 ml/kg); Average
MEASUREMENT NAME: Cmax

Can you look up the measured Cmax of CCCCCCCCCCCCCCCCOC(=O)CCC(NC(=O)C(CCCCNC(=O)C(N)CCC(=O)O)NC(=O)C(N)CCC(=O)O)C(=O)OCCCCCCCCCCCCCCCC (stereo not shown) for me?
132 µg/mL
